species: Canis familiaris; assay: Inotropic potency expressed as 50 percent increase in right ventricular contractile force in dogs; type: functional, Canis lupus familiaris, Heart right ventricle
Exercise: state measured Potency for each of the compounds provided.
One number for each entry, in nM/kg.

Below: 6 compounds and their reported Potency.
compound	unit-label	Potency
NCCc1ccc(O)c(O)c1	nM/kg	58.1
CC(CCc1ccc(O)c(O)c1)NC1CCc2cc(O)c(O)cc2C1 (centres undefined)	nM/kg	24.6
CC(CCc1ccc(O)cc1)NCCc1ccc(O)c(O)c1 (centres undefined)	nM/kg	4.1
CC(C)NC1CCc2c(ccc(O)c2O)C1 (centres undefined)	nM/kg	110
CC(C)NCC(O)c1ccc(O)c(O)c1 (centres undefined)	nM/kg	0.11
Oc1ccc(CCNC2CCc3cc(O)c(O)cc3C2)cc1O (centres undefined)	nM/kg	85

Take each entry in turn and give its Potency.
1. CC(C)NC1CCc2cc(O)c(O)cc2C1 (centres undefined)
2. Oc1cc2c(cc1O)CC(NC1CCc3cc(O)c(O)cc3C1)CC2 (centres undefined)

1: 1560; 2: 961

Take each entry in turn and give its Potency.
1. CC(Cc1ccc(O)c(O)c1)NC1CCc2c(ccc(O)c2O)C1 (centres undefined)
2. NC1CCc2cc(O)c(O)cc2C1 (centres undefined)
3. NC1CCc2c(ccc(O)c2O)C1 (centres undefined)

1. 7.2
2. 173
3. 410

Take each entry in turn and give its Potency.
1. CC(Cc1ccc(O)c(O)c1)NC1CCc2cc(O)c(O)cc2C1 (centres undefined)
2. CC(CCc1ccc(O)cc1)NC1CCc2cc(O)c(O)cc2C1 (centres undefined)
3. CC(CCc1ccc(O)cc1)NC1CCc2c(ccc(O)c2O)C1 (centres undefined)

1: 11.4; 2: 140; 3: 27.7

###

organism: Canis familiaris; experiment: Cardioselectivity expressed as change in blood pressure for 100% increase in right ventricular contractile force in dogs; type: functional, Canis lupus familiaris
metric: BP (mmHg)
Give bare numbers, in mmHg.

Below: 3 compounds and their reported BP.
compound	metric	reading
NC1CCc2cc(O)c(O)cc2C1 (centres undefined)	BP	61
CC(CCc1ccc(O)cc1)NCCc1ccc(O)c(O)c1 (centres undefined)	BP	4
Oc1ccc(CCNC2CCc3cc(O)c(O)cc3C2)cc1O (centres undefined)	BP	72

Given the entry Oc1cc2c(cc1O)CC(NC1CCc3cc(O)c(O)cc3C1)CC2 (centres undefined) , report its measured BP.
84
